# measured-target: UniProt:O00329
# Sequence (O00329 whole entry): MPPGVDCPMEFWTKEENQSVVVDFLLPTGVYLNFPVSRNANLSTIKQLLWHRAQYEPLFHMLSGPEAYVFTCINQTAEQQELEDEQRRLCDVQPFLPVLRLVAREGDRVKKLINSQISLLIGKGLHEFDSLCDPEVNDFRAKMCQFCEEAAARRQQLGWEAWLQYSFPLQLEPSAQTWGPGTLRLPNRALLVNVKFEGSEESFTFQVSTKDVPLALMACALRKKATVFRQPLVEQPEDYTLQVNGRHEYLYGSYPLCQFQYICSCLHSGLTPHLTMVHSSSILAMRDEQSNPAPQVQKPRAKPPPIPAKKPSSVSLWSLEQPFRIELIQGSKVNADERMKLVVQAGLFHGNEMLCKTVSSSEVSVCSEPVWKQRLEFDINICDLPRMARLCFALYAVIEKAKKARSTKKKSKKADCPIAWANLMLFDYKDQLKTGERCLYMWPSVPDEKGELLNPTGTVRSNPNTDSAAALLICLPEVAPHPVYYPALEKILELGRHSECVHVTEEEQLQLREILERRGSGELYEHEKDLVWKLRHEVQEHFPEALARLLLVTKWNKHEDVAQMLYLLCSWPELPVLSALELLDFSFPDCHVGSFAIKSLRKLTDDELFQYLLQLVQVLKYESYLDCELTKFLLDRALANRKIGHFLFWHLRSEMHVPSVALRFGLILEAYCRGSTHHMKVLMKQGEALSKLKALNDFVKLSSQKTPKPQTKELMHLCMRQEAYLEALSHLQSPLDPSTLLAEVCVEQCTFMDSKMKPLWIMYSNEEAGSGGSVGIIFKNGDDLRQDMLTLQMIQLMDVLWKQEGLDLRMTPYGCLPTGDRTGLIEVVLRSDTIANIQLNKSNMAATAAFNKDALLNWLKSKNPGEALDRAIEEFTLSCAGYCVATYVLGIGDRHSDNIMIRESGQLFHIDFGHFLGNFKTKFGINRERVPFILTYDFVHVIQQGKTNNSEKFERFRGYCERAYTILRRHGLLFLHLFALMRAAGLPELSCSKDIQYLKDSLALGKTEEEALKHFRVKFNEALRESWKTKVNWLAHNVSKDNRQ

compound: Cc1nc2c(C(=O)O)cc(N3CCOCC3)nn2c1Nc1cccc(C(F)(F)F)c1C
Kd [nM]: 58
//
compound: Cc1nc2c(N)cc(N3CCOCC3)nn2c1Cc1cccc(C(F)(F)F)c1C
Kd [nM]: 955
//
compound: Cc1c(Cc2c(COC(=O)C(C)N)nc3c(N)cc(N4CCOCC4)nn23)cccc1C(F)(F)F (stereo not shown)
Kd [nM]: 120
//
compound: Cc1nc2c(N)cc(N3CCOCC3)nn2c1Nc1cccc2c1CCNC2
Kd [nM]: 34

====

# pKd per entry for PIK3Cα_h (Homo sapiens (Human))
pKd: −log10 of the molar value.

molecule: Cc1nc2c(N)cc(N3CCOCC3)nn2c1Nc1cccc(C(F)(F)F)c1C
measured-target: PIK3Cα_h (Homo sapiens (Human))
Sequence (P42336 whole entry): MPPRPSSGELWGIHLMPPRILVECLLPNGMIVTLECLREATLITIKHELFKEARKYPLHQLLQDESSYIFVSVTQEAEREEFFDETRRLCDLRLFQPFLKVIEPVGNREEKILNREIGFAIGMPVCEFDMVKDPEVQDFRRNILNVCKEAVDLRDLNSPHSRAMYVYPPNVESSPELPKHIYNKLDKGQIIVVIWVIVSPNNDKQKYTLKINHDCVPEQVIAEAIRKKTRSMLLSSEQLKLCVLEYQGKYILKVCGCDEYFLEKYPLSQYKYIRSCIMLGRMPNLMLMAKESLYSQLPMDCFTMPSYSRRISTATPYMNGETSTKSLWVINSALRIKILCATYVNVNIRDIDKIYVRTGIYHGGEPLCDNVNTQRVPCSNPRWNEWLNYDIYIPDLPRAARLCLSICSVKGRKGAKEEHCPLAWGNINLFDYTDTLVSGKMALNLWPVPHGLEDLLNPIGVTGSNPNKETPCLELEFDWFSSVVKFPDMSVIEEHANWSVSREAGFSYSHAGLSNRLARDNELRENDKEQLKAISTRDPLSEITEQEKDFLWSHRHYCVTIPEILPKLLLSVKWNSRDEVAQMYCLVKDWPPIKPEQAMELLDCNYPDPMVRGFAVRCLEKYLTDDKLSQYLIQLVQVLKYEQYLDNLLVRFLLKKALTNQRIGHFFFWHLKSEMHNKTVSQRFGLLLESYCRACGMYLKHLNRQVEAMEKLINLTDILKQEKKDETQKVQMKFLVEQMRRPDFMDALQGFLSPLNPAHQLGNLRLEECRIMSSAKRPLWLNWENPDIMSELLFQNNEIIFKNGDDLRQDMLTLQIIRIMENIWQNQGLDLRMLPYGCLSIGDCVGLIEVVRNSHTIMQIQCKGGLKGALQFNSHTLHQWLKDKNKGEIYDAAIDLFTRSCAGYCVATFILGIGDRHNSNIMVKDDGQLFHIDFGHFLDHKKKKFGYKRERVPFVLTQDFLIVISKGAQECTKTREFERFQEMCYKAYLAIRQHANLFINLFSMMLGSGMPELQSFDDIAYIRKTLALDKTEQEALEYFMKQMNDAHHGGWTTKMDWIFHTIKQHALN
result-comparator: =
pKd: 5.29
--
molecule: Cc1nc2c(C(N)=O)cc(N3CCOCC3)nn2c1Cc1cccc(C(F)(F)F)c1C
measured-target: PIK3Cα_h (Homo sapiens (Human))
result-comparator: <
pKd: 4.52
--
molecule: Cc1nc2c(N)cc(N3CCOCC3)nn2c1Nc1cccc(F)c1CN1CCOCC1
measured-target: PIK3Cα_h (Homo sapiens (Human))
result-comparator: =
pKd: 5.38
--
molecule: Cc1c(Cc2c(CO)nc3c(C(=O)O)cc(N4CCOCC4)nn23)cccc1C(F)(F)F
measured-target: PIK3Cα_h (Homo sapiens (Human))
result-comparator: =
pKd: 5.80
--
molecule: Cc1nc2c(-c3c[nH]cn3)cc(N3CCOCC3)nn2c1Nc1cccc(F)c1C
measured-target: PIK3Cα_h (Homo sapiens (Human))
result-comparator: =
pKd: 6.27
--
molecule: Cc1nc2c(-c3ccn[nH]3)cc(N3CCOCC3)nn2c1Cc1cccc(C(F)(F)F)c1C
measured-target: PIK3Cα_h (Homo sapiens (Human))
result-comparator: =
pKd: 4.52
--
molecule: Cc1nc2c(C(N)=O)cc(N3CCOCC3)nn2c1Nc1cccc(C(F)(F)F)c1C
measured-target: PIK3Cα_h (Homo sapiens (Human))
result-comparator: =
pKd: 5.69
--
molecule: Cc1nc2c(N)cc(N3CCOCC3)nn2c1Nc1cccc(C(F)(F)F)c1CN1CCC(O)C1 (centres unmarked) [Compound 78]
measured-target: PIK3Cα_h (Homo sapiens (Human))
result-comparator: =
pKd: 5.49

====

# measured-target: UniProtKB P42338
# Sequence (P42338 whole entry): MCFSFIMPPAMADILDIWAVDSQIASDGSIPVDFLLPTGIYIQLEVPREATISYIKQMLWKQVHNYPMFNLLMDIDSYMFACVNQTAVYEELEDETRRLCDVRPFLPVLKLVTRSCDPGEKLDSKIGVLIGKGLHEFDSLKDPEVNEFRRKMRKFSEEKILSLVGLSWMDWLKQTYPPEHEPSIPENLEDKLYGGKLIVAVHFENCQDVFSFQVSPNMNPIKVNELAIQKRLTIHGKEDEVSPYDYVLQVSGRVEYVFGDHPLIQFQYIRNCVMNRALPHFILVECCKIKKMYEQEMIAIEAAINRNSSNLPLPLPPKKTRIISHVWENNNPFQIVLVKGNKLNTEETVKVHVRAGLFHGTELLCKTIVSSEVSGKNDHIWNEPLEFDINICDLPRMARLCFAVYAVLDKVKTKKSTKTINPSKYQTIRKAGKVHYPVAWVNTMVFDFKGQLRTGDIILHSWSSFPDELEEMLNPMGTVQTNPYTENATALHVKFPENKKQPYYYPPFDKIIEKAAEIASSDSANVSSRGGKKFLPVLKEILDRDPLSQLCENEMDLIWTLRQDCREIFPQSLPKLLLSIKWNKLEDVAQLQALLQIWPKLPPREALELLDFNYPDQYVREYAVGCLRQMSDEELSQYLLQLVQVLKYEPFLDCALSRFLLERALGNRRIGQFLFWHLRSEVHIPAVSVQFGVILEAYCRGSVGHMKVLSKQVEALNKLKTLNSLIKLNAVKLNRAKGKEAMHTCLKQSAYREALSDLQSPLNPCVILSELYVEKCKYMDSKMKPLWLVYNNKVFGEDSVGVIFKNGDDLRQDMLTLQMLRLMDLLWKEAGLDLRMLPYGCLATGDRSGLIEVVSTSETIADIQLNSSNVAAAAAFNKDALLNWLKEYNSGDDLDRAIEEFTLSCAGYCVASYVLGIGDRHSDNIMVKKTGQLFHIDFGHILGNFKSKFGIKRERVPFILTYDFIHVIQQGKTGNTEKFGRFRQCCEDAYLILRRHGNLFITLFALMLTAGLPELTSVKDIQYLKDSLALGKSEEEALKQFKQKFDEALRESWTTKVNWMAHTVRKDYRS

molecule: Cc1nc2c(N)cc(N3CCOCC3)nn2c1Nc1cccc(C(F)(F)F)c1CN1CC(S(C)(=O)=O)C1
Kd: 1.7 nM

molecule: Cc1nc2c(C(=O)O)cc(N3CCOCC3)nn2c1Nc1cccc(C(F)(F)F)c1C
Kd: 0.9 nM

molecule: Cc1c(Cc2c(CO)nc3c(-c4ccn[nH]4)cc(N4CCOCC4)nn23)cccc1C(F)(F)F
Kd: 9 nM

molecule: Cc1nc2c(N)cc(N3CCOCC3)nn2c1Cc1cccc(F)c1CNC(C)CO (stereo not shown)
Kd: 74 nM

====

# measured-target: UniProtKB P42345
Binarize Kd at 9 µM; below is 1, at or above is -1.

compound: Cc1c(Cc2c(CO)nc3c(-c4ncc[nH]4)cc(N4CCOCC4)nn23)cccc1C(F)(F)F [Compound 20]
label-class: -1
--
compound: Cc1nc2c(N)cc(N3CCOCC3)nn2c1Nc1cccc(C(F)(F)F)c1CN1CCOCC1 [Compound 38]
label-class: -1
--
compound: CC(CO)NCc1c(F)cccc1Cc1c(CO)nc2c(N)cc(N3CCOCC3)nn12 (stereo not drawn) [Compound 102]
label-class: -1
--
compound: Nc1cc(N2CCOCC2)nn2c(Cc3cccc(F)c3C3CCN(CCO)CC3)c(CO)nc12 [Compound 108]
label-class: -1
--
compound: Cc1nc2c(N)cc(N3CCOCC3)nn2c1Cc1cccc(F)c1C1CCN(CCO)CC1 [Compound 107]
label-class: -1
--
compound: Cc1nc2c(N)cc(N3CCOCC3)nn2c1Nc1cccc(C(F)(F)F)c1CNC(C)CO (stereo not drawn) [Compound 56]
label-class: -1
--
compound: Cc1nc2c(-c3c[nH]cn3)cc(N3CCOCC3)nn2c1Nc1cccc(F)c1C [Compound 50]
label-class: 1
--
compound: Cc1nc2c(C(=O)O)cc(N3CCOCC3)nn2c1Cc1cccc(C(F)(F)F)c1C [Compound 9]
label-class: -1
--
compound: Cc1nc2c(N)cc(N3CCOCC3)nn2c1Nc1cccc(C(F)(F)F)c1C1CCNCC1 [Compound 59]
label-class: -1
--
compound: Cc1nc2c(C(=O)O)cc(N3CCOCC3)nn2c1Nc1ccccc1N1CCOCC1 [Compound 86]
label-class: -1
--
compound: Cc1c(Cc2c(CO)nc3c(C(=O)O)cc(N4CCOCC4)nn23)cccc1C(F)(F)F [Compound 22]
label-class: -1
--
compound: Cc1nc2c(-c3cnc[nH]3)cc(N3CCOCC3)nn2c1Nc1cccc(C(F)(F)F)c1CN1CC(O)C1 [Compound 46]
label-class: 1
--
compound: Nc1cc(N2CCOCC2)nn2c(Cc3cccc(C(F)(F)F)c3C3CCN(CCO)CC3)c(CO)nc12 [Compound 105]
label-class: -1
--
compound: Cc1nc2c(N)cc(N3CCOCC3)nn2c1Nc1cccc(F)c1CN1CCOCC1 [Compound 63]
label-class: 1
--
compound: Cc1nc2c(-c3ccn[nH]3)cc(N3CCOCC3)nn2c1Nc1ccccc1N1CCOCC1 [Compound 89]
label-class: 1
--
compound: Cc1nc2c(C(N)=O)cc(N3CCOCC3)nn2c1Nc1cccc(C(F)(F)F)c1C [Compound 40]
label-class: -1
--
compound: Nc1cc(N2CCOCC2)nn2c(Cc3cccc(C(F)(F)F)c3C3CCNCC3)c(CO)nc12 [Compound 104]
label-class: -1
--
compound: Cc1nc2c(-c3cnc[nH]3)cc(N3CCOCC3)nn2c1Nc1cccc(C(F)(F)F)c1CN1CCOCC1 [Compound 41]
label-class: 1
--
compound: Cc1nc2c(N)cc(N3CCOCC3)nn2c1Nc1cccc(C(F)(F)F)c1CN1CCC(S(C)(=O)=O)CC1 [Compound 54]
label-class: -1
--
compound: Cc1c(Cc2c(CO)nc3c(N)cc(N4CCOCC4)nn23)cccc1C(F)(F)F [Compound 14b]
label-class: -1
--
compound: Cc1c(Cc2c(CNCCS(C)(=O)=O)nc3c(N)cc(N4CCOCC4)nn23)cccc1C(F)(F)F [Compound 2]
label-class: -1
--
compound: Cc1cccc(Cc2c(C)nc3c(C(=O)O)cc(N4CCOCC4)nn23)c1C [Compound 12]
label-class: -1
--
compound: Cc1c(Cc2c(CO)nc3c(-c4c[nH]cn4)cc(N4CCOC(C)C4)nn23)cccc1C(F)(F)F (stereo not drawn) [Compound 27]
label-class: 1
--
compound: Cc1nc2c(N)cc(N3CCOCC3)nn2c1Cc1cccc2c1CN(C(C)C)CC2 [Compound 110]
label-class: -1
--
compound: Cc1c(Cc2c(CO)nc3c(C(N)=O)cc(N4CCOCC4)nn23)cccc1C(F)(F)F [Compound 15]
label-class: -1
--
compound: Cc1nc2c(N)cc(N3CCOCC3)nn2c1Nc1cccc(C(F)(F)F)c1CN1CCN(C)CC1 [Compound 58]
label-class: -1
--
compound: Cc1c(Cc2c(COC(=O)C(N)C(C)C)nc3c(N)cc(N4CCOCC4)nn23)cccc1C(F)(F)F (stereo not drawn) [Compound 82]
label-class: -1
--
compound: Cc1c(Cc2c(CO)nc3c(-c4ccn[nH]4)cc(N4CCOCC4)nn23)cccc1C(F)(F)F [Compound 21]
label-class: 1
--
compound: Cc1nc2c(N)cc(N3CCOCC3)nn2c1Cc1cccc(F)c1C1CCNCC1 [Compound 106]
label-class: -1
--
compound: Cc1nc2c(C(N)=O)cc(N3CCOCC3)nn2c1Cc1cccc(Cl)c1C [Compound 11]
label-class: -1
--
compound: Cc1nc2c(N)cc(N3CCOCC3)nn2c1Cc1cccc2c1CNCC2 [Compound 109]
label-class: -1
--
compound: Cc1c(Cc2c(CCO)nc3c(N)cc(N4CCOCC4)nn23)cccc1C(F)(F)F [Compound 23]
label-class: -1
--
compound: Cc1c(Cc2c(CN)nc3c(N)cc(N4CCOCC4)nn23)cccc1C(F)(F)F [Compound 85]
label-class: 1

====

# Test system: Akt phosphorylated at Thr308 in PC-3 cells
# assay-procedure: Cellular assay: phosphorylation of Akt (Thr308) in PC-3 cells, MSD ELISA
# Type: cell-based
# recorded-conditions: Homo sapiens, PC-3, 1 h, 60 min incubation with compound, read-out: IC50 pAkt_Thr308
pIC50: −log10 of the molar value.
Mark MET for reported pIC50 of 7 or greater; mark NOT MET for anything smaller.

molecule: Cc1c(Cc2c(C(C)O)nc3c(N)cc(N4CCOCC4)nn23)cccc1C(F)(F)F (stereo not drawn)
label-class: MET

molecule: Cc1nc2c(C(=O)O)cc(N3CCOCC3)nn2c1Cc1cccc(C(F)(F)F)c1C
label-class: NOT MET

molecule: Cc1nc2c(-c3cnc[nH]3)cc(N3CCOCC3)nn2c1Nc1cccc(C(F)(F)F)c1CN1CC(O)C1
label-class: MET

molecule: CCc1c(F)cccc1Cc1c(CNCCO)nc2c(N)cc(N3CCOCC3)nn12
label-class: NOT MET

molecule: CCC(C)C(N)C(=O)OCc1nc2c(N)cc(N3CCOCC3)nn2c1Cc1cccc(C(F)(F)F)c1C (stereo not drawn)
label-class: NOT MET

molecule: Cc1nc2c(-c3cnc[nH]3)cc(N3CCOCC3)nn2c1Nc1cccc(C(F)(F)F)c1CN1CCOCC1
label-class: MET

molecule: Cc1c(Cc2c(CO)nc3c(-c4cnc[nH]4)cc(N4CCOCC4)nn23)cccc1C(F)(F)F
label-class: MET

molecule: Nc1cc(N2CCOCC2)nn2c(Cc3cccc(F)c3C3CCN(CCO)CC3)c(CO)nc12
label-class: NOT MET

molecule: Cc1nc2c(N)cc(N3CCOCC3)nn2c1Cc1cccc2c1CN(C(C)C)CC2
label-class: NOT MET

molecule: Cc1nc2c(C(=O)O)cc(N3CCOCC3)nn2c1Nc1cccc(C(F)(F)F)c1C
label-class: NOT MET

molecule: CC(CO)NCc1c(F)cccc1Cc1c(CO)nc2c(N)cc(N3CCOCC3)nn12 (stereo not drawn)
label-class: NOT MET

molecule: Cc1nc2c(N)cc(N3CCOCC3)nn2c1Nc1cccc(C(F)(F)F)c1C
label-class: MET

molecule: Cc1nc2c(-c3c[nH]cn3)cc(N3CCOCC3)nn2c1Nc1cccc(C(F)(F)F)c1CN1CCN(C)CC1
label-class: MET

The measured values listed here are drawn from patent US10087187B2.
